- System: Pseudomonas aeruginosa
- test: Antibacterial activity against Pseudomonas aeruginosa MTCC 2295 assessed as growth inhibition after 18 hrs by CLSI microdilution broth assay
- Format: functional
- stated.conditions: MTCC 2295, 18 h
Where a SMILES comes first, the peptide text is derived from it. [ ]: non-standard residue; d: D form. 3Abz = Nc1cccc(C(=O)O)c1
Reported MIC values for the following molecules.

# molecule, MIC [µg/mL]
records = [
    ("N=C(N)NCCCC(N)C(=O)NC(Cc1c[nH]c2ccccc12)C(=O)NC(Cc1c[nH]c2ccccc12)C(=O)Nc1cccc(C(=O)NC(CCCNC(=N)N)C(=O)NC(CCCNC(=N)N)C(N)=O)c1 (configuration not stated) (H-RWW[3Abz]RR-NH2; configuration not given here)", 75),
    ("N=C(N)NCCCC(NC(=O)C(Cc1c[nH]c2ccccc12)NC(=O)C(Cc1c[nH]c2ccccc12)NC(=O)C(CCCNC(=N)N)NC(=O)C(N)Cc1c[nH]c2ccccc12)C(N)=O (configuration not stated) (H-WRWWR-NH2; configuration not given here)", 70),
]
